Where do these numbers come from? They come from a melting point compilation (Tetko et al.; mined from patent text by program, amines drawn as free bases though some values may be those of a salt).

# key: entry, value: melting point

Some compounds with recorded melting point:
CN(C)C(=S)Oc1ccc(C(F)(F)F)cc1C(=O)c1ccc(C#N)cc1 | 142 °C
COC(=O)c1ccc2nc(C)[nH]c2c1C(=O)OC | 97 to 103 °C
N#CN=C(Nc1cccnc1)NC(NC(=O)c1ccc(Cl)cc1)C(F)(F)C(F)(F)F (stereo not given) | 177 to 178 °C
Cc1sc(-c2ccco2)nc1O | 173 to 174 °C

// query melting point value for entry CC(C)C1=NC2=NC(SCc3ccccc3)(SCc3ccccc3)NN2C=C1
65 to 66 °C

----------
READOUT: melting point

O=C(O)c1ccc(-c2cn(-c3ccc(OC(F)(F)F)cc3)cn2)cc1 | 230 °C
O=C1C=C(c2ccccc2)CC(C(=O)O)C1 (stereo unspecified) | 140 to 160 °C
NC(=O)c1snc(Cl)c1Cl | 156 to 158 °C
CCS(=O)(=O)c1ccc(C(CC2CCCC2)C(=O)Nc2nccs2)cc1 (stereo unspecified) | 178 to 179 °C
Cc1nccn1S(=O)(=O)c1c[nH]cn1 | 158 to 159 °C
O=C(N(Cc1cccnc1)c1ccc(F)cc1)C(F)(F)F | 97 to 98 °C
CCOC(=O)c1cc([N+](=O)[O-])ccc1F | 53 to 54 °C
O=C(Nc1ncnc2c1ncn2C1OC(CO)C(O)C1O)c1ccccc1 (stereo unspecified) | 151 to 153 °C

// query melting point value for entry N#CCOc1cccc2c1c1cccc(F)c1n2Cc1ccccc1
134 °C

// query melting point value for entry COC(=O)c1c(-c2ccccc2C)c2cc(C)c(C)cc2[nH]c1=O
288 to 289 °C

// query melting point value for entry CC(C)(C)C(C)(O)C(CCOc1ccccc1)n1cncn1 (stereo unspecified)
118 to 120 °C

// query melting point value for entry CCCCc1nc2c(N)nc3c(c2n1CC(C)C)CCNC3
164 to 166 °C

// query melting point value for entry CCOc1ccc(C(=O)N2CCNC2=Nc2c(Cl)cccc2Cl)cc1
146 to 148 °C

// query melting point value for entry CC(=O)c1ccc(OCCCN2CCC(c3nsc4cc(F)ccc34)CC2)c(O)c1
135 to 137 °C

// query melting point value for entry CCCN1CCCC2CC3=C(CCC(=O)N3)CC21 (stereo unspecified)
183 to 184 °C

// query melting point value for entry CCc1c(-c2ccc(O)cc2)c2cc(COCCN3CCCCC3)c3cccc1n32
132 to 134 °C

// query melting point value for entry COc1cc(N)cc2c1nc(C(F)F)n2-c1nc(N2CCOCC2)nc(N2CCN(S(C)(=O)=O)CC2)n1
280 to 283 °C

// query melting point value for entry COc1cccc(NC(=O)NC2N=C(c3ccccc3)c3ccc(C)cc3N(C)C2=O)c1 (stereo unspecified)
184 to 188 °C

// query melting point value for entry CCOC(=O)c1cn2c3c(cc(Br)cc3c1=O)CC2(C)C
227 to 228 °C

----------
# key: entry, value: melting point

Some compounds with recorded melting point:
COC(=O)C1=C(CBr)Nc2ncnn2C1c1cccs1 (stereo unspecified) | 155 °C
CSc1nc(C(F)(F)F)c(Br)c(=O)[nH]1 | 215 to 216 °C
O=c1c2ccc(O)cc2[nH]n1Cc1ccccc1 | 206 to 207 °C

// query melting point value for entry CS(=O)(=O)Nc1ccc([C@@H]2CCC(=O)O2)cc1
101 to 102 °C

// query melting point value for entry CCNC(=O)c1ccccc1NC(C)(C)C
37 to 40 °C

// query melting point value for entry CC(=O)Oc1ccc(CC(=O)Nc2ncc(-c3ccc(OC(C)=O)cc3)nc2Cc2ccccc2)cc1
225 to 227 °C

----------
READOUT: melting point

Some compounds with recorded melting point:
Cc1noc2nc(-c3ccccc3)cc(O)c12 | 281 to 282 °C
O=C(O)c1cc(-n2nc3n(c2=O)CCCC3)c(F)cc1Cl | 91 to 94 °C
C#CCOc1ccc2c(c1)c(-c1ccc(C(C)C)cc1)nc(=O)n2Cc1cccc(NC(=O)CCl)c1 | 170 to 172 °C
Cc1cc2c(cn1)c(C#N)c(-c1ncc(S(=O)(=O)NC(C)C)cn1)n2C1CCC1 | 242 to 243 °C

Turning now to a further compound:
// query melting point value for entry NS(=O)(=O)c1ccc(S(=O)(=O)NCc2cccs2)s1
146 to 148 °C

----------
# key: entry, value: melting point

Some molecules with recorded melting point:
Cc1cc(SC2=C(O)C[C@@](CCc3cccc(O)c3)(C3CCCC3)OC2=O)c(C(C)(C)C)cc1CO | 128 to 132 °C
CCC(=O)Nc1c(C(=O)c2cc(CO)co2)[nH]c2cc(Cl)ccc12 | 171 to 172 °C

// query melting point value for entry CCOC(=O)c1cn(CC)c2nc(OC)ncc2c1=O
149 °C

// query melting point value for entry Cc1ccc(-c2ncc(N(C)CCCCO)nc2-c2ccc(C)cc2)cc1
94 to 96 °C

// query melting point value for entry COc1cc(N(C)C)ccc1C(=O)NC1CCN(C(C)CC(C(=O)N(C)C)(c2ccccc2)c2ccccc2)CC1O (centres undefined)
211 °C

// query melting point value for entry CC(=O)N(C)c1c(N(C)C)cc(CC(C#N)=CNc2ccccc2)cc1N(C)C
190 to 200 °C

// query melting point value for entry COc1ccc(C(C#N)Sc2ccccn2)cc1OC (centres undefined)
108 to 110 °C

// query melting point value for entry CCC(c1oc2ccccc2c(=O)c1-c1cccc(F)c1)n1cnc2c(N)ncnc21 (centres undefined)
102 to 107 °C

// query melting point value for entry COc1ccc2c(c1)CCC1=C2CCC2(CC(C)C)C(=O)CC=C12 (centres undefined)
57 to 60 °C

----------
# key: entry, value: melting point

Some molecules with recorded melting point:
COc1ccc(C2=C(c3ccc(O)cc3)CCCc3cc(OCc4ccccc4)ccc32)cc1 | 173 to 175 °C
O=C(Nc1ccccc1)Nc1ncc(Oc2ccc(Cl)cc2)c(N2CCOCC2)n1 | 229 to 231 °C
O=C(NCc1ccncc1)c1cccnc1Oc1cccnc1 | 142 to 144 °C
CC(=Cc1ccc(-c2ccccc2)s1)c1ccccc1 | 115 to 125 °C

Turning now to a further molecule:
// query melting point value for entry CCc1nc2cc(NC)c(Cl)cc2n1-c1ccc(CCNC(=O)NS(=O)(=O)c2ccc(C)cc2)cc1
95 to 100 °C

----------
READOUT: melting point

CS(=O)(=O)O[C@@H]1CCc2c(F)cc(F)cc2C1 | 79 to 80 °C
CS(=O)(=O)c1c(C(=O)c2cnoc2C2CC2)ccc2c1OC(F)(F)O2 | 162 to 163 °C
CC(=O)OCC(=O)Nc1ccc(C(CC2CCCC2)C(=O)Nc2nccs2)cc1 (stereo not given) | 90 to 95 °C
Cn1c(=O)n(CCCN2CCC3(CC2)C(=O)NCN3c2ccccc2)c2ccccc21 | 164 °C

// query melting point value for entry COc1ccc(N2CCN(c3c(C)c(C)c4c(c3C)C(OCc3ccc(C(=O)O)cc3)C(C)(C)O4)CC2)cc1 (stereo not given)
162 to 163 °C

// query melting point value for entry O=c1cc(-c2ccoc2)c2ccc(COc3cc(F)cc(-c4ccccc4)c3)cc2o1
105 to 107 °C

// query melting point value for entry CCN(CC)C(=O)n1ccc(Sc2ccc(Cl)cc2Cl)n1
96 to 97 °C

// query melting point value for entry CCOC(=O)c1cc2c(OCC(O)CNC(C)C)cc(C)cc2[nH]1 (stereo not given)
163 to 165 °C

// query melting point value for entry CCOC(=O)Cc1ccc(CC(=O)c2c(O)c3cccnc3n(-c3ccccc3)c2=O)cc1
156 to 158 °C

----------
# key: entry, value: melting point

Some compounds with recorded melting point:
CN(C)Cc1ccc(CSCCNC(=C[N+](=O)[O-])NCc2ccc3c(c2)OCO3)o1 | 98 to 120 °C
N#CCC(=O)Nc1ccc(C(F)(F)F)cc1 | 194 to 196 °C
Cc1c(Cl)cc(C(C)(C)C)c(O)c1-c1nc2cc(S(=O)(=O)C(F)(F)F)ccc2[nH]1 | 174 to 176 °C
O=C(NC(Cc1ccc(OCc2ccc(F)cc2)cc1)C(=O)O)c1cn2ccc(-c3ccc(Cl)cc3)cc2n1 (centres undefined) | 255 to 257 °C
CC(=O)SCC(Cc1ccccc1)C(=O)Nc1cc(C(=O)O)ccc1N1CCCCC1 (centres undefined) | 170 to 174 °C
CCCCCC(=O)NC(Cc1cnc(SCCC)n1Cc1ccccc1Cl)C(=O)O (centres undefined) | 118 to 121 °C
O=C1c2c(Cl)cccc2OCN1CCO[N+](=O)[O-] | 98 to 100 °C
CN(c1cccc2cc(-c3ncc(C(=O)O)s3)[nH]c12)S(=O)(=O)c1cccs1 | 258 to 260 °C

Turning now to a further compound:
// query melting point value for entry N#Cc1cccc(OCc2ccccc2)c1[N+](=O)[O-]
94 to 95 °C
